Data provenance: patent US10472401B2

- experimental_system: HLA-A*02:01 (Homo sapiens, UniProt P04439, D140Y/D185E/D98H/E176V/E277Q/G131W/G231S/I119V/I121R/I166T/I218V/L300P/L318F/N151K/N90K/P208A/P217A/Q86G/Q94H/R138H/R169H/T345S)
- protocol_text: MHC binding assay (UV-ligand exchange, ELISA of stabilized MHC complexes)
- test_conditions: MHC class I binding score; binding to HLA-A*02:01 ranged by peptide exchange yield (UV-ligand exchange, ELISA)

>  <substance>
42 (VLLQKIVSA; listed as Homo sapiens) [compound 42]

>  <Peptide exchange>
″+++″ (≥50% = +++)

$$$$
>  <substance>
555 (YVLEGLKSV; listed as Homo sapiens) [compound 555]

>  <Peptide exchange>
″+++″ (≥50% = +++)

$$$$
>  <substance>
363 (KVLDVSDLESV; listed as Homo sapiens) [compound 363]

>  <Peptide exchange>
″++″ (≥20% = ++)

$$$$
>  <substance>
573 (ILVANAIVGV; listed as Homo sapiens) [compound 573]

>  <Peptide exchange>
″+++″ (≥50% = +++)

$$$$
>  <substance>
148 (ALNPEIVSV; listed as Homo sapiens) [compound 148]

>  <Peptide exchange>
″++″ (≥20% = ++)

$$$$
>  <substance>
219 (KLSDIGITV; listed as Homo sapiens) [compound 219]

>  <Peptide exchange>
″+++″ (≥50% = +++)

$$$$
>  <substance>
279 (ALWGGTQPLL; listed as Homo sapiens) [compound 279]

>  <Peptide exchange>
″++″ (≥20% = ++)

$$$$
>  <substance>
133 (KVLSNIHTV; listed as Homo sapiens) [compound 133]

>  <Peptide exchange>
″++″ (≥20% = ++)

$$$$
>  <substance>
478 (YLLHEKLNL; listed as Homo sapiens) [compound 478]

>  <Peptide exchange>
″+++″ (≥50% = +++)

$$$$
